CC50 at 72 h reference
- protocol summary: Cytotoxicity against human HeLa Rh cells assessed as reduction in cell viability after 3 days by MTS assay
- Assay type: cell-based
test readout: CC50 at 72 h

>>> readout_value("Cn1cc(-c2ccc(C[C@@H](O)c3ccc(-n4cccn4)cc3)c([N+](=O)[O-])c2)cn1")
"> 342 µM"
>>> readout_value("O=[N+]([O-])c1cc(Cl)ccc1CC(O)c1ccc(-n2cccn2)cc1 (racemic)")
"> 100 µM"
>>> readout_value("O=[N+]([O-])c1cc(Br)ccc1CC(O)c1ccc(-n2cccn2)cc1 (racemic)")
"22.5 µM"
>>> readout_value("O=[N+]([O-])c1cc(Br)ccc1CC(O)c1ccc(-n2cncn2)cc1 (racemic)")
"39 µM"
>>> readout_value("Cn1cc(-c2ccc(C[C@@H](O)c3ccc(-n4cncn4)cc3)c([N+](=O)[O-])c2)cn1")
"> 342 µM"
>>> readout_value("Cc1cc(CCCOc2c(C)cc(-c3noc(C(F)(F)F)n3)cc2C)on1 [PLECONARIL]")
"> 131 µM"
>>> readout_value("Cn1nc(C(F)(F)F)cc1-c1ccc(CC(O)c2ccc(-n3cncn3)cc2)c([N+](=O)[O-])c1 (racemic)")
"21 µM"
>>> readout_value("Cn1cc(-c2ccc(CC(O)c3ccc(-n4cncn4)cc3)c([N+](=O)[O-])c2)cn1 (racemic)")
"256 to 699 µM"
>>> readout_value("O=[N+]([O-])c1cc(-c2cncs2)ccc1CC(O)c1ccc(-n2cncn2)cc1 (racemic)")
"44 µM"
>>> readout_value("O=[N+]([O-])c1cc(Br)ccc1CC(O)c1ccc(-c2ccncc2)cc1 (racemic)")
"> 250 µM"
>>> readout_value("O=[N+]([O-])c1cc(F)ccc1CC(O)c1ccc(-n2cccn2)cc1 (racemic)")
"> 100 µM"
>>> readout_value("Cc1noc(C)c1-c1ccc(CC(O)c2ccc(-n3cncn3)cc2)c([N+](=O)[O-])c1 (racemic)")
"> 256 µM"
>>> readout_value("COC(=O)c1ccc(CC(O)c2ccc(-c3ccncc3)cc2)c([N+](=O)[O-])c1 (racemic)")
"> 264 µM"
>>> readout_value("O=[N+]([O-])c1cc(-c2cccs2)ccc1CC(O)c1ccc(-c2ccncc2)cc1 (racemic)")
"> 248 µM"
>>> readout_value("Cn1cc(-c2ccc(CC(O)c3ccc(-n4cccn4)cc3)c([N+](=O)[O-])c2)cn1 (racemic)")
"247 to 1000 µM"
>>> readout_value("Cn1cc(-c2ccc(C[C@H](O)c3ccc(-n4cccn4)cc3)c([N+](=O)[O-])c2)cn1")
"> 342 µM"
>>> readout_value("Cn1nc(C(F)(F)F)cc1-c1ccc(CC(O)c2ccc(-c3ccncc3)cc2)c([N+](=O)[O-])c1 (racemic)")
"> 100 µM"
